# measurement.target: SSTR1 (Homo sapiens);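 note: competitive binding to membranes of CHO-K1 cells overexpressing SSTR1, incubated 60 min at room temperature, radioactivity read by scintillation counting after filtration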
# Sequence (P30872 whole entry): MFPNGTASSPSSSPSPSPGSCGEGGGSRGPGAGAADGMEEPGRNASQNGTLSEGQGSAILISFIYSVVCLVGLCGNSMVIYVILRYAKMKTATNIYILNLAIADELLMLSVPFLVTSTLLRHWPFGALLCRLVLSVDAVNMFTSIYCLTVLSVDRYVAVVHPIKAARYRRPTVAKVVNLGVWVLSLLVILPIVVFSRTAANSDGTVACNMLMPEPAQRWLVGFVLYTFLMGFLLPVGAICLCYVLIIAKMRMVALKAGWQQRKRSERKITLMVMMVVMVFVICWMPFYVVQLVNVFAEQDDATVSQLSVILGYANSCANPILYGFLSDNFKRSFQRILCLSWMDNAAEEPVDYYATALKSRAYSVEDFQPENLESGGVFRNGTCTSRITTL
quantity: pIC50
# pIC50: negative log10 of molar concentration; output just the value

Known pIC50 results, listed for orientation:
compound	measured.value
Cc1nc(NCCN2CCCC2)c(C(C)c2ccc(F)cc2)nc1C(=O)N1CC[C@@H](F)C1 (stereo partly shown)	5.36
Cc1nnc([C@H](C)c2ccc(F)cc2)c(N[C@@H]2CCN(C)C2)n1 (single isomer, unassigned)	4.59
Cc1nnc([C@@H](C)c2ccc(F)cc2)c(NCCN2CCC2)n1 (single isomer, unassigned)	4.82
CNC(=O)c1cnc(NCCN2CCCC2)c([C@H](C)c2ccc(F)cc2)n1 (single isomer, unassigned)	5.29
Cc1nc(NCCN2CCCC2)c(C(C)c2ccc(F)cc2)nc1C(=O)N(C)C1CC1 (stereo not shown)	5.47
Cc1cccc(Cc2nc(C(N)=O)c(C)nc2NCCN2CCCC2)c1	4.88

Task item: For SSTR1 (Homo sapiens), provide pIC50 of Cc1nc(NCCN2CCCC2)c(C(C)c2ccc(F)cc2)nc1C(=O)N[C@H]1CCOC1 (stereo partly shown) please.
Reply: 5.62

Task item: Query for SSTR1 (Homo sapiens): what pIC50 does the record show for CC(c1ccc(F)cc1)c1nc(C(N)=O)cnc1NCCN1CCCC1 (stereo not shown) ?
Reply: 5.24

---

# measurement.target: SSTR4 (Homo sapiens, UniProt P31391)
# Sequence (P31391 whole entry): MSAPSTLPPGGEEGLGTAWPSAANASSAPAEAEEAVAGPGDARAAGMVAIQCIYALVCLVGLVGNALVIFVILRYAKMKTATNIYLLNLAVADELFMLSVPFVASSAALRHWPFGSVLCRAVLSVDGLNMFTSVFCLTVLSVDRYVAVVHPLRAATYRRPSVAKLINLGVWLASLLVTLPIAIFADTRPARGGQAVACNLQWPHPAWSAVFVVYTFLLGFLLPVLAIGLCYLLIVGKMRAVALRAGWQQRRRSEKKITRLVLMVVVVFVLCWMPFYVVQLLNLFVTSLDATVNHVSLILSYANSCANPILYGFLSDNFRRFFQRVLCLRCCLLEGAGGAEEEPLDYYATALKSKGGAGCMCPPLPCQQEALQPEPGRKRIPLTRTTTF
# assay.name: cell-based
Listed here: items and their measured pEC50.
In textbook form, pEC50 equals minus log to base ten of the concentration in mol/L.

Below: 5 molecules and their reported pEC50.
molecule	quantity	measured.value
COc1cccc(Cc2nc(C#N)c(C)nc2N[C@@H]2CCN(C)C2)c1	pEC50	7.11
CO[C@@H]1CCN(C(=O)c2cnc(NCCN3CCCC3)c([C@H](C)c3ccc(F)cc3)n2)C1	pEC50	7.54
C[C@H](c1ccc(F)cc1)c1nc(C(=O)N[C@H]2CCOC2)cnc1NCCN1CCCC1	pEC50	7.82
COCCNC(=O)c1nc(C(C)c2ccc(F)cc2)c(NCCN2CCCC2)nc1C (stereo not drawn)	pEC50	8.73
CNC(=O)c1cnc(NCCN2CCCC2)c([C@@H](C)c2ccc(F)cc2)n1 (single isomer, unassigned)	pEC50	7.60

Next, consider the following molecule.
Task item: For the molecule shown here, CC(c1ccc(F)cc1)c1ncc(C(F)(F)F)nc1NCCN1CCCC1 (stereo not drawn) , give the reported pEC50.
Reply: 6.82

---

# measurement.target: SSTR4 (Homo sapiens, UniProt P31391)
# assay.name: cell-based
// EC50 lookup, one value per entry
Answer with a number only, understood to be in nM.

Examples with answers:
compound	quantity	measured.value
Cc1nnc([C@@H](C)c2ccccc2)c(N[C@H]2CCN(C)C2)n1 (single isomer, unassigned)	EC50	26.9
CO[C@H]1CCN(C(=O)c2cnc(NCCN3CCCC3)c([C@H](C)c3ccc(F)cc3)n2)C1	EC50	26.9
CC(c1ccc(F)cc1)c1nc(-c2nccs2)cnc1NCCN1CCCC1 (centres unmarked)	EC50	42.7
CNC(=O)c1cnc(NCCN2CCCC2)c(C(C)c2ccc(F)cc2)n1 (centres unmarked)	EC50	3.72
Cc1nnc([C@H](C)c2ccccc2)c(N[C@@H]2CCN(C)C2)n1 (single isomer, unassigned)	EC50	39.8
CC(c1ccc(F)cc1)c1ncc(C(=O)N(C)C)nc1NCCN1CCCC1 (centres unmarked)	EC50	4.68
Cc1cnc(-c2cnc(NCCN3CCCC3)c(C(C)c3ccc(F)cc3)n2)o1 (centres unmarked)	EC50	29.5

Now turn to the next compound.
Task item: GET /values?readout=EC50&item= CC1CN(C)CCC1Nc1ncc(C(F)(F)F)nc1Cc1ccc(F)cc1 (mixture of isomers)
Reply: 661

---

# measurement.target: SSTR4 (Homo sapiens)
# assay.name: SSTR4 I-125 somatostatin competition binding assay (CHO-K1 membranes)
# Parameters: host or cells: CHO-K1
# measurement.setup: competition with I-125 labeled somatostatin, membranes from CHO-K1 overexpressing SSTR4; read-out: SSTR4 Binding pIC50 (converted)
Known log10 of IC50 of a selection of compounds
Would you kindly interpret these values as log10 of IC50 expressed in nM?

Task item: I have this compound here, Fc1ccc(Cc2nnc(C3CC3)nc2NCCN2CCC2)cc1 , and I need its recorded log10 of IC50.
Reply: 1.95

---

# measurement.target: SSTR4 (Homo sapiens)
# assay.name: cell-based
Listing of entries alongside the reported pEC50.
In plain terms, pEC50 is the concentration in mol/L turned into minus its base-10 logarithm.

Here are 8 molecules together with their reported answers.
molecule	measured.value
C[C@H]1C[C@H](Nc2nccnc2Cc2ccc(F)cc2)CCN1C (single isomer, unassigned) [Example 113]	6.09
c1ccc(Cc2nc3ccccc3nc2NCCN2CCCC2)cc1 [Example 1]	6.78
Cc1cccc(Cc2nc(C)c(C)nc2NCCN2CCCC2)c1 [Example 83]	8.11
Fc1ccc(Cc2nccnc2N[C@@H]2CCNC[C@H]2F)cc1 (racemic) [Example 115]	6.66
C[C@H](c1ccc(F)cc1)c1nc(C(=O)N[C@@H]2CCOC2)cnc1NCCN1CCCC1 [Example 13]	7.93
CC1CN(C)CCC1Nc1nc(C(F)(F)F)cnc1Cc1ccc(F)cc1 (stereo not drawn) [Example 92]	6.94
CC(c1ccc(F)cc1)c1nccnc1NCCN1CCC(F)C1 (stereo not drawn) [Example 117]	6.65
CN(C)C(=O)c1cnc(NCCN2CCCC2)c(Cc2ccc(F)cc2)c1 [Example 99]	6.97

Please look at the following molecule next.
Task item: Reported pEC50 for CNC(=O)c1nc(Cc2ccc(F)cc2)c(N[C@@H]2CCN(C)C[C@H]2C)nc1C (racemic) [Example 46] : what is it?
Reply: 7.14

---

# measurement.target: SSTR4 (Homo sapiens)
# assay.name: cell-based
Quick rule for you: EC50 under 80 nM gets Criterion met, anything else gets Criterion not met.

compound	qualitative.label
CNC(=O)c1nc(Cc2ccc(F)cc2)c(NCCN2CCCC2)nc1C [Example 43]	Criterion met

Shift focus to the following entry.
Task item: # check: EC50 < 80 nM for CNC(=O)c1cnc(N[C@@H]2CCN(C)C2)c([C@@H](C)c2ccc(F)cc2)n1 (single isomer, unassigned)
Reply: Criterion not met

---

The following compounds are listed with their measured pEC50 values.
# measurement.target: SSTR4 (Homo sapiens, UniProt P31391)
# assay.name: cell-based
// field semantics: pEC50 = negative decimal log of concentration (mol/L)

Illustrative cases are given below, each with its answer.
compound	measurement.target	quantity	measured.value
C[C@@H](c1ccc(F)cc1)c1nc(C(N)=O)cnc1NCCN1CCCC1 (single isomer, unassigned)	SSTR4 (Homo sapiens, UniProt P31391)	pEC50	6.15
C[C@@H](c1ccc(F)cc1)c1nc(C(N)=O)cnc1N[C@@H]1CCN(C)C1 (single isomer, unassigned)	SSTR4 (Homo sapiens, UniProt P31391)	pEC50	6.48
Cc1nc(N[C@@H]2CCN(C)C[C@H]2C)c(Cc2ccc(F)cc2)nc1C(N)=O (racemic)	SSTR4 (Homo sapiens, UniProt P31391)	pEC50	7.42
C[C@H](c1ccc(F)cc1)c1nc(C(N)=O)cnc1NCCN1CCCC1 (single isomer, unassigned)	SSTR4 (Homo sapiens, UniProt P31391)	pEC50	8.29

Task item: So what's the measured pEC50 for this one? COc1cccc(Cc2nc3cccc(C)c3nc2NCCN2CCC2)c1 (single isomer, unassigned)
Reply: 7.20

Task item: Endpoint output: pEC50 of CN1CCC1CNc1nccnc1Cc1ccc(F)cc1 (centres unmarked) . Value?
Reply: 5.69

Task item: Can you look up the measured pEC50 of Cc1cccc(Cc2nc(C#N)c(C)nc2N[C@@H]2CCN(C)C2)c1 for me?
Reply: 7.44

---

# measurement.target: SSTR4 (Homo sapiens, UniProt P31391)
# assay.name: cell-based
Below, each of the compounds is paired with its reported log10 EC50 value.
Values below are the log10 of the recorded EC50, with nM as the unit.

Example cases with answers are listed next.
compound	measurement.target	log10 EC50
CO[C@H]1C[C@@H](NC(=O)c2nc(C(C)c3ccc(F)cc3)c(NCCN3CCCC3)nc2C)C1 (stereo partly shown)	SSTR4 (Homo sapiens, UniProt P31391)	0.88
Cc1cnc(-c2cnc(NCCN3CCCC3)c(C(C)c3ccc(F)cc3)n2)s1 (stereo not shown)	SSTR4 (Homo sapiens, UniProt P31391)	2.35
CNC(=O)c1cnc(N[C@@H]2CCN(C)C2)c([C@H](C)c2ccc(F)cc2)n1 (single isomer, unassigned)	SSTR4 (Homo sapiens, UniProt P31391)	3.08
Cc1cccc2nc(Cc3ccccc3)c(NCCN3CCC3)nc12 (single isomer, unassigned)	SSTR4 (Homo sapiens, UniProt P31391)	1.83

Task item: Look up log10 EC50 for this compound: CCN(C)C(=O)c1nc(C(C)c2ccc(F)cc2)c(NCCN2CCCC2)nc1C (stereo not shown)
Reply: 0.13
